# TARGET_ENTITY: T1, CD47 protein (Acrobiosystems, cat#CD7-HA2E9) (UniProt Q08722 19-139)
# T1 construct: Bought recombinant protein, used as immunogen and as ELISA coating (100 ng/well); also called CD47 peptide; CD47 antigen
# ASSAY_PROTOCOL: ELISA, CD47 protein coated 100 ng/well, 3 ul hybridoma culture solution, anti-mIgG-HRP
MEASURE: OD450 measurements (OD450)
One number for each entry, in OD450.

Reference set, count: 3
BINDER	MEASURE	MEASURED
5A4 antibody (antibody, V domains shown, Hybridoma monoclonal antibody detected with anti-mouse IgG) VH: QVQLQQPGPELVRPGASVKMSCKASGYTFTNYWIHWVKQRPGQGLEWIGMIDPSNSATRLNQKFKDKATLNVDKSSNTAYMQLSSLTSEDSAVYYCARGGFAFDSWGQGTTLTVSS VL: DVLMTQTPLSLPVSLGDQASISCRSSQSLVHSNGNTYLHWYLQKPGQSPKLLIYKVSNRFSGVPDRFSGSGSGTDFTLKISRVEAEDLGVYFCSQSTHVPWTFGGGTKLEIK	OD450 measurements	1.93
3A5 antibody (antibody, V domains shown, Hybridoma monoclonal antibody detected with anti-mouse IgG) VH: EVQLQQPGAELVKPGASVKMSCKASGYTFTSYWMHWMNQRPGQGLEWIGVIDPSDSYTSYNQKFKGKATLTVDTSSSTAYMQLSSLTSEDSAVYYCARGGKRAMDYWGQGTSVTVSS VL: DVLMTQTPLSLPVSLGDQASISCRSSQSLVHSNGNTYLHWYLQKPGQSPKLLIYKVSNRFSGVPDRFSGSGSGTDFTLKISRVEAEDLGVYFCSQSTHVPFTFGSGTKLEIK	OD450 measurements	2.01
7C7 antibody (antibody, V domains shown, Monoclonal antibody from a hybridoma (mouse myeloma fusion), detected with anti-mouse IgG; In the ELISA hybridoma culture solution was used) VH: EVQLQQSGPELVKPGASVRMSCKASGYTFTSYVMHWVKQKPGQGLEWIGYINPYNDGTKYNEKFKGKSTLTSDKSSSTAYMELSSLTSEDSAVYCCARGRNRYDSWFAYWGQGTLVTVSA VL: DIQMTQTTSSLSASLGDRVTISCRASQDISNYLNWYQQKPDGTVKLLIYYTSRLHSGVPSRFSGSGSGTDYSLTISNLEQEDIATYFCQQGNTLPWTFGGGTKLEIK	OD450 measurements	1.98

# input for lookup
# OD450 measurements lookup, item 1E7 antibody (antibody, V domains shown, Hybridoma monoclonal antibody detected with anti-mouse IgG) VH: EVQLQQSGPELIKPGASVKMSCKASGYIFTSYVVYWVKQKPGQGLEWIGYINPYNDGTKYNEKFKGKATLTSYKSSSTAYMELSSLTSADSAVYYCARGGFTTDYWGQGTTLTVSS VL: DVLMTQTPLSLPVSLGDQASISCRSSQSLVHSNGNTYLHWYLQKPGQSPKLLIYKVSNRFSGVPDRFSGSGSGTDFTLKISRVEAEDLGVYFCSQSTHVPYTFGGGTKLEIK
2.14
